Origin of measurements: the supplement of paper PMC9112550

- System: Escherichia coli TOP10
- ASSAY EXPLANATION: shrunken log2 fold change of peptide-encoding DNA abundance (4.5 h post-induction vs induction); higher = less antimicrobial activity (less host growth inhibition)
- CONDITION PARAMETERS: time post-induction: 4.5 h; library: site-saturation at positions 5, 18, 19, 20
RECORDED ENDPOINT: shrunken log2 fold change
Number, no unit, nothing else.

// sample "RRIRVRPPRLPRPRPRPAEGPRP" , its shrunken log2 fold change was -0.0119

According to the records, this sequence "RRIRDRPPRLPRPRPRPVCRPRP" displays shrunken log2 fold change of 0.251

Memo: "RRIRHRPPRLPRPRPRPRNGPRP" , reported shrunken log2 fold change: -0.0288

Data point: "RRIRKRPPRLPRPRPRPAVPPRP" ; shrunken log2 fold change = 0.275

Just so you know, measured shrunken log2 fold change for "RRIRQRPPRLPRPRPRPPPYPRP" came out at -0.0506

Sure, the documented shrunken log2 fold change for "RRIRWRPPRLPRPRPRPSDLPRP" is -0.175

"RRIRPRPPRLPRPRPRPSQKPRP" yielded shrunken log2 fold change of 0.188

The recorded shrunken log2 fold change for entry "RRIRQRPPRLPRPRPRPMELPRP" equals -0.109

// sample "RRIRFRPPRLPRPRPRPWWGPRP" , its shrunken log2 fold change was -0.00459

Looking up "RRIRLRPPRLPRPRPRPTRPPRP" , I found its shrunken log2 fold change recorded as 0.828

shrunken log2 fold change reported for this sequence "RRIRPRPPRLPRPRPRPVDNPRP" : 0.0523

Documented shrunken log2 fold change of "RRIRMRPPRLPRPRPRPYDQPRP" : 0.102

Measured shrunken log2 fold change of "RRIRVRPPRLPRPRPRPGWHPRP" : 0.132

The sequence listed as "RRIRRRPPRLPRPRPRPVHPPRP" shows shrunken log2 fold change equal to 0.348

The reported shrunken log2 fold change of the sequence "RRIRGRPPRLPRPRPRPMFSPRP" was 0.147

Measured shrunken log2 fold change of "RRIRNRPPRLPRPRPRPMDYPRP" : 0.0678

Record summary for "RRIRVRPPRLPRPRPRPLWRPRP" : reported shrunken log2 fold change = 0.293

So, "RRIRTRPPRLPRPRPRPLQIPRP" ? Its shrunken log2 fold change was 4.62

Entry "RRIRARPPRLPRPRPRPNDQPRP" — recorded shrunken log2 fold change = 0.226

Per the records, this sequence ( "RRIRLRPPRLPRPRPRPLIVPRP" ) has shrunken log2 fold change equal to -0.131

shrunken log2 fold change reading for "RRIRNRPPRLPRPRPRPRGYPRP" : -0.846

The sequence listed as "RRIRNRPPRLPRPRPRPRPMPRP" has a reported shrunken log2 fold change of 0.522

Value of measured shrunken log2 fold change for the entry "RRIRCRPPRLPRPRPRPYEYPRP" : -0.769

Lab book: shrunken log2 fold change of "RRIRGRPPRLPRPRPRPEHRPRP" noted as 0.102

----------
Hi there, I'd appreciate the recorded shrunken log2 fold change for every entry that follows.
- Test system: Escherichia coli TOP10;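 further: peptides expressed intracellularly from a pBAD plasmid library in pooled LB shake-flask culture, induced with 0.3% L-arabinose, DNA abundance read by NGS, three biological replicates, DESeq2 with apeglm shrinkage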
- ASSAY EXPLANATION: shrunken log2 fold change of peptide-encoding DNA abundance (4.5 h post-induction vs induction); higher = less antimicrobial activity (less host growth inhibition)
- CONDITION PARAMETERS: time post-induction: 4.5 h; library: site-saturation at positions 5, 18, 19, 20

Measured shrunken log2 fold change of "RRIRCRPPRLPRPRPRPEFTPRP" : -0.194

The value of shrunken log2 fold change measured for the sequence "RRIRFRPPRLPRPRPRPWLIPRP" turned out to be -0.441

What the record says about "RRIRSRPPRLPRPRPRPSLFPRP" : shrunken log2 fold change is 0.0853

Given item "RRIRPRPPRLPRPRPRPRSAPRP" , the value recorded as its shrunken log2 fold change is 0.497

Form: sequence = "RRIRWRPPRLPRPRPRPQIGPRP" ; shrunken log2 fold change = 0.0807

So, "RRIRTRPPRLPRPRPRPRLHPRP" ? Its shrunken log2 fold change was 0.0546

Measured shrunken log2 fold change of "RRIRLRPPRLPRPRPRPLLMPRP" : -0.136

Sample "RRIRSRPPRLPRPRPRPPVRPRP" ; shrunken log2 fold change observed: 0.337

// sample "RRIRTRPPRLPRPRPRPFSKPRP" , its shrunken log2 fold change was 0.0087

// shrunken log2 fold change value for "RRIRTRPPRLPRPRPRPSLSPRP" : 0.00222

Form field shrunken log2 fold change, entry "RRIRDRPPRLPRPRPRPYIDPRP" : -0.0251

shrunken log2 fold change reading for "RRIRLRPPRLPRPRPRPCIQPRP" : -0.675

Query "RRIRPRPPRLPRPRPRPFCFPRP" yields shrunken log2 fold change of 0.337

Sample "RRIRIRPPRLPRPRPRPFYSPRP" ; shrunken log2 fold change observed: -0.476

The recorded shrunken log2 fold change for "RRIRTRPPRLPRPRPRPAQMPRP" is 0.0652

shrunken log2 fold change in this record for "RRIRERPPRLPRPRPRPPMCPRP" : -0.305

Please fill in: shrunken log2 fold change reported for "RRIRPRPPRLPRPRPRPLPHPRP" = -0.206

Sure, the documented shrunken log2 fold change for "RRIRVRPPRLPRPRPRPYYVPRP" is -1.97

The sequence "RRIRWRPPRLPRPRPRPCFVPRP" showed shrunken log2 fold change equal to -0.144

// field: shrunken log2 fold change; key: "RRIRWRPPRLPRPRPRPELKPRP" ; value = 0.276

Input "RRIRTRPPRLPRPRPRPQDFPRP" . Output shrunken log2 fold change: -0.29

# sequence "RRIRIRPPRLPRPRPRPHVCPRP" ; its shrunken log2 fold change = 0.41

Measured shrunken log2 fold change of "RRIRCRPPRLPRPRPRPQWPPRP" : 0.0205

Entry "RRIRLRPPRLPRPRPRPPASPRP" , shrunken log2 fold change reported as 0.561

The measured shrunken log2 fold change associated with "RRIRWRPPRLPRPRPRPISQPRP" reads -0.392
